Value source: ChEMBL document CHEMBL3988442

- target.of.assay: Proteasome subunit beta (Trypanosoma cruzi)
- assay: Trypanosoma cruzi proteasome chymotrypsin-like activity (TcProtChymo) assay.
- Type: functional
- Set-up: scale not given: in the data most compounds retested in dose-response had high values
- condition.label: 9.37 µM
measured.parameter: Percent Effect (%)

>  <compound>
CN(CCNC(=O)c1scnc1Cl)c1ccccc1

>  <measured.parameter>
Percent Effect

>  <unit.descriptor>
%

>  <observed>
19.9

$$$$
>  <compound>
O=C(NCCCNCC1CNc2ccnn2C1)c1ccccc1 (configuration not stated)

>  <measured.parameter>
Percent Effect

>  <unit.descriptor>
%

>  <observed>
16.6

$$$$
>  <compound>
CC(C)N1CCC(Cc2cnc(-c3cccc(C(=O)O)c3)cn2)C1 (configuration not stated)

>  <measured.parameter>
Percent Effect

>  <unit.descriptor>
%

>  <observed>
-3.59

$$$$
>  <compound>
Cc1ccc(C(=O)N2CCN(CCc3cccs3)CC2)c(=O)[nH]1

>  <measured.parameter>
Percent Effect

>  <unit.descriptor>
%

>  <observed>
-2.65

$$$$
>  <compound>
CC(NC(=O)NCc1ccc(Cl)s1)c1ccccn1 (configuration not stated)

>  <measured.parameter>
Percent Effect

>  <unit.descriptor>
%

>  <observed>
5.49

$$$$
>  <compound>
CCn1cc(CN2CCCN(C(=O)C3=NN(C)C(=O)CC3)CC2)cn1

>  <measured.parameter>
Percent Effect

>  <unit.descriptor>
%

>  <observed>
13.7

$$$$
>  <compound>
CCN1CCN(C2CCN(Cc3c(C)noc3C)CC2)C1=O

>  <measured.parameter>
Percent Effect

>  <unit.descriptor>
%

>  <observed>
6.8

$$$$
>  <compound>
CN(C)Cc1cc(=O)n2c(n1)CN(C(=O)Cc1ccsc1)CCC2

>  <measured.parameter>
Percent Effect

>  <unit.descriptor>
%

>  <observed>
6.49

$$$$
>  <compound>
CN(C)CCO[C@@H]1CC[C@H]2[C@H]1OCCN2C(=O)COc1ccccc1

>  <measured.parameter>
Percent Effect

>  <unit.descriptor>
%

>  <observed>
17.7

$$$$
>  <compound>
CCn1cc(NC(=O)NCc2ccc(CN3CCOCC3)cc2)cn1

>  <measured.parameter>
Percent Effect

>  <unit.descriptor>
%

>  <observed>
10

$$$$
>  <compound>
Cn1c(CNc2c(F)cccc2-n2cccn2)cc(=O)n(C)c1=O

>  <measured.parameter>
Percent Effect

>  <unit.descriptor>
%

>  <observed>
6.14

$$$$
>  <compound>
COc1cccc(S(=O)(=O)N2CCC(O)(CN(C)C)C2)c1 (configuration not stated)

>  <measured.parameter>
Percent Effect

>  <unit.descriptor>
%

>  <observed>
9.2

$$$$
>  <compound>
Cn1cc(N2CC3(COCCN(Cc4ccsc4)C3)OCC2=O)cn1 (configuration not stated)

>  <measured.parameter>
Percent Effect

>  <unit.descriptor>
%

>  <observed>
2.21

$$$$
>  <compound>
CN(C)C(=O)c1nc2c(s1)CCN(C(=O)c1ccc(Cl)cc1)CC2

>  <measured.parameter>
Percent Effect

>  <unit.descriptor>
%

>  <observed>
10.4

$$$$
>  <compound>
c1coc(-c2noc(CN3CCCC(Cn4cncn4)C3)n2)c1 (configuration not stated)

>  <measured.parameter>
Percent Effect

>  <unit.descriptor>
%

>  <observed>
2.05

$$$$
>  <compound>
Cc1nc(C)n(CC2CCCCN2CC(=O)NC2CCOCC2)n1 (configuration not stated)

>  <measured.parameter>
Percent Effect

>  <unit.descriptor>
%

>  <observed>
5.07

$$$$
>  <compound>
CN(C)C(CNC(=O)NCCc1cccc(O)c1)c1ccco1 (configuration not stated)

>  <measured.parameter>
Percent Effect

>  <unit.descriptor>
%

>  <observed>
13

$$$$
>  <compound>
COc1c(C2CCCN2C(=O)c2cc(Cl)c[nH]2)c(C)nn1C (configuration not stated)

>  <measured.parameter>
Percent Effect

>  <unit.descriptor>
%

>  <observed>
4.31

$$$$
>  <compound>
Cc1nc(N)cc(C2CN(C(=O)c3ccn(C)n3)CCO2)n1 (configuration not stated)

>  <measured.parameter>
Percent Effect

>  <unit.descriptor>
%

>  <observed>
10.4

$$$$
>  <compound>
Cc1ccc(-c2nc(CN3CCc4c(ncn4C)C3)cs2)o1

>  <measured.parameter>
Percent Effect

>  <unit.descriptor>
%

>  <observed>
24.3

$$$$
>  <compound>
O=C(c1cnccn1)N1CCCC2(COCCN(CC3CC3)C2)C1 (configuration not stated)

>  <measured.parameter>
Percent Effect

>  <unit.descriptor>
%

>  <observed>
7.15

$$$$
>  <compound>
Cc1nn(C)c(C)c1C(C)NC(=O)Nc1cccnc1N1CCCC1 (configuration not stated)

>  <measured.parameter>
Percent Effect

>  <unit.descriptor>
%

>  <observed>
0.18

$$$$
>  <compound>
COCc1nc(N(C)C)ncc1C(=O)NC(C)C

>  <measured.parameter>
Percent Effect

>  <unit.descriptor>
%

>  <observed>
4.07

$$$$
>  <compound>
CCOc1cccc(C(C)NC(=O)N2CCC(C(N)=O)CC2)c1 (configuration not stated)

>  <measured.parameter>
Percent Effect

>  <unit.descriptor>
%

>  <observed>
3.97

$$$$
>  <compound>
O=S(=O)(N1CCCC1)N1CCCCC1CCc1ccccc1 (configuration not stated)

>  <measured.parameter>
Percent Effect

>  <unit.descriptor>
%

>  <observed>
13

$$$$
>  <compound>
CC1CCCCN1C(=O)CN1CCN(c2ccc3nncn3n2)CC1 (configuration not stated)

>  <measured.parameter>
Percent Effect

>  <unit.descriptor>
%

>  <observed>
11.3

$$$$
>  <compound>
Clc1ccccc1C1(c2ccnc(-c3ccncc3)n2)CCNCC1

>  <measured.parameter>
Percent Effect

>  <unit.descriptor>
%

>  <observed>
17

$$$$
>  <compound>
CCc1nnc2n1CCN(C(=O)c1cc3ccc(F)cc3nc1C)C2

>  <measured.parameter>
Percent Effect

>  <unit.descriptor>
%

>  <observed>
6.59

$$$$
>  <compound>
NC(=O)N1CCC2(CC1)CN(c1ccsc1)C(=O)CO2

>  <measured.parameter>
Percent Effect

>  <unit.descriptor>
%

>  <observed>
-2.38

$$$$
>  <compound>
O=C(C1CCOCC1)N1C[C@@H]2C[C@@H](c3nc(C4CC4)cs3)O[C@@H]2C1

>  <measured.parameter>
Percent Effect

>  <unit.descriptor>
%

>  <observed>
13.8

$$$$
>  <compound>
CCOCC1CN(Cc2cnn(C)c2)Cc2ncn(CC3CC3)c21 (configuration not stated)

>  <measured.parameter>
Percent Effect

>  <unit.descriptor>
%

>  <observed>
2.21

$$$$
>  <compound>
Cc1cnc(CN(C)C2CCN(CCc3cnn(C)c3)C2)o1 (configuration not stated)

>  <measured.parameter>
Percent Effect

>  <unit.descriptor>
%

>  <observed>
3.65

$$$$
>  <compound>
CCOC(=O)[C@]12CCCN(Cc3nccs3)C[C@H]1CN(CCN(C)C)C2

>  <measured.parameter>
Percent Effect

>  <unit.descriptor>
%

>  <observed>
16.2

$$$$
>  <compound>
CS(=O)(=O)c1ccccc1C(=O)NCCCN1CCc2ccccc2C1

>  <measured.parameter>
Percent Effect

>  <unit.descriptor>
%

>  <observed>
17.1

$$$$
>  <compound>
CCS(=O)(=O)N1C[C@H]2CCC[C@@]2(COc2ccccn2)C1

>  <measured.parameter>
Percent Effect

>  <unit.descriptor>
%

>  <observed>
10.5

$$$$
>  <compound>
COc1cccc(CN2CCC3(CCN(C(=O)[C@H]4CCCO4)CC3)C2)c1

>  <measured.parameter>
Percent Effect

>  <unit.descriptor>
%

>  <observed>
12.6

$$$$
>  <compound>
Cc1ccc(F)cc1C(=O)N1C[C@@H](CN2CCOCC2)[C@@H](CO)C1

>  <measured.parameter>
Percent Effect

>  <unit.descriptor>
%

>  <observed>
9.76

$$$$
>  <compound>
CC(O)CN1CCN(C(=O)c2cn(-c3ccccc3Cl)nn2)CC1 (configuration not stated)

>  <measured.parameter>
Percent Effect

>  <unit.descriptor>
%

>  <observed>
4.21

$$$$
>  <compound>
c1ncn(CC2CN(Cc3csc(C4CCCC4)n3)CCO2)n1 (configuration not stated)

>  <measured.parameter>
Percent Effect

>  <unit.descriptor>
%

>  <observed>
-2.79

$$$$
>  <compound>
Cc1cc(C)n(CC2CCCN2CCCS(=O)(=O)N(C)C)n1 (configuration not stated)

>  <measured.parameter>
Percent Effect

>  <unit.descriptor>
%

>  <observed>
13.6

$$$$
>  <compound>
CN1CCN(c2ncnc3c2c(C(=O)NC2CC2)c2ccccn23)CC1

>  <measured.parameter>
Percent Effect

>  <unit.descriptor>
%

>  <observed>
-2.56

$$$$
>  <compound>
O=C(C1CC=CC1)N1C[C@@H]2[C@@H](C1)OCC(=O)N2Cc1cccnc1

>  <measured.parameter>
Percent Effect

>  <unit.descriptor>
%

>  <observed>
0.87

$$$$
>  <compound>
Cc1cnc2n(c1=O)CC(C(=O)NC1CC1)CS2 (configuration not stated)

>  <measured.parameter>
Percent Effect

>  <unit.descriptor>
%

>  <observed>
6.21

$$$$
>  <compound>
CN(C)C(=O)[C@@H]1C[C@@H]2CCN(Cc3nccs3)C[C@@H]2O1

>  <measured.parameter>
Percent Effect

>  <unit.descriptor>
%

>  <observed>
21.8

$$$$
>  <compound>
O=C(NCCCN1CCCCC1)c1ccc(-n2ccc3ccccc32)s1

>  <measured.parameter>
Percent Effect

>  <unit.descriptor>
%

>  <observed>
9.4

$$$$
>  <compound>
COCCn1ccc(=O)c(OCC(=O)Nc2cccc(C(C)=O)c2)c1C

>  <measured.parameter>
Percent Effect

>  <unit.descriptor>
%

>  <observed>
13.5

$$$$
>  <compound>
Nc1cc(CCCNC(=O)NC2CC2)nn1-c1ccccc1

>  <measured.parameter>
Percent Effect

>  <unit.descriptor>
%

>  <observed>
14.7

$$$$
